# tgt: UniProtKB Q96RI1
# Sequence (whole entry): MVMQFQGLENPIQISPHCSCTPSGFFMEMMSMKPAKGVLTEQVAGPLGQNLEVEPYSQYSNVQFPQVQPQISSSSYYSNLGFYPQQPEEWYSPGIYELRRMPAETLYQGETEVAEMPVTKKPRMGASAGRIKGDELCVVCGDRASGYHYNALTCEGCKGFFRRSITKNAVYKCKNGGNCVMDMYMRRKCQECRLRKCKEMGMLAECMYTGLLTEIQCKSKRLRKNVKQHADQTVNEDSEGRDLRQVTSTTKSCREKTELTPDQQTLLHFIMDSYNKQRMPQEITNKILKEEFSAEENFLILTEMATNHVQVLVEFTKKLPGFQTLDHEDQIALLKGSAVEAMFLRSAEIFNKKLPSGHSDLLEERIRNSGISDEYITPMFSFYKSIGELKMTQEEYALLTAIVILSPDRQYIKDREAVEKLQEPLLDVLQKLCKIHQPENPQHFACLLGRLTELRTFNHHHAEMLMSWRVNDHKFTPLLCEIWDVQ
# test description: Transactivation of human FXR expressed in human HeLa cells co-expressing BSEP at 50 uM after 24 hrs by dual-glo luciferase reporter gene assay relative to GW4064
# Assay type: cell-based
Calls of active or inactive are those of the source. The calls are words filed in the database; no cut-off is given here.
value type: Emax

Cc1ccc(C(=O)NCc2ccc(C(=O)O)cc2)cc1C; 12%
CC(C)(C)c1ccc(C(=O)NCc2ccc(C(=O)O)c(Cl)c2)cc1; 21%
Cc1ccccc1C(=O)NCc1ccc(C(=O)O)cc1; inactive
CC(C)(C)c1ccc(C(=O)NCc2ccc(OC(F)(F)F)cc2)cc1; 26%
CNC(=O)c1ccc(CNC(=O)c2ccc(C(C)(C)C)cc2)cc1; 29%
O=C(O)c1ccc(CNC(=O)C2CCNCC2)cc1; inactive

Below are some compounds; for each one, tell me its Emax.
1. O=C(O)c1ccc(CNC(=O)c2ccc3ccccc3c2)cc1
2. O=C(O)c1ccc(CNC(=O)c2ccccc2)cc1
3. CC(C)(C)c1ccc(C(=O)NCc2ccc(NC(=O)C(F)(F)F)cc2)cc1
4. CC(C)(C)c1ccc(C(=O)NCc2ccc(S(C)(=O)=O)cc2)cc1
5. O=C(O)c1ccc(CNC(=O)c2ccc(-c3ccccc3)cc2)cc1
6. CC(C)(C)c1ccc(C(=O)NCc2ccc(S(N)(=O)=O)cc2F)cc1

Reply:
1. 18%
2. 12%
3. 20%
4. 34%
5. 24%
6. 34%

Below are some compounds; for each one, tell me its Emax.
1. CC(C)(C)c1ccc(C(=O)NCc2ccc(C(=O)O)cc2)cc1
2. CC(=O)NS(=O)(=O)c1ccc(CNC(=O)c2ccc(C(C)(C)C)cc2)cc1
3. CC(=O)c1ccc(CNC(=O)c2ccc(C(C)(C)C)cc2)cc1
4. CC(C)(C)c1ccc(C(=O)NCc2ccc(C(=O)O)cc2Cl)cc1
5. O=C(O)c1ccc(CNC(=O)c2ccccc2-c2ccccc2)cc1

Reply:
["13%", "inactive", "29%", "25%", "22%"]

Below are some compounds; for each one, tell me its Emax.
1. CCOc1ccc(CNC(=O)c2ccc(C(C)(C)C)cc2)cc1
2. Cc1cc(CNC(=O)c2ccc(C(C)(C)C)cc2)ccc1C(=O)O
3. Cc1ccc(C(=O)NCc2ccc(C(=O)O)cc2)cc1
4. CC(NC(=O)c1ccc(C(C)(C)C)cc1)c1ccc(C(=O)O)cc1 (stereo not drawn)

Reply:
1: 31%; 2: 14%; 3: 15%; 4: 24%

Below are some compounds; for each one, tell me its Emax.
1. CC(C)(C)c1ccc(C(=O)NCc2ccc(N)cc2)cc1
2. CC(C)(C)c1ccc(C(=O)NCc2ccc(CO)cc2)cc1

Reply:
["inactive", "inactive"]
